Sourced from patent US20150119373A1

run_description: Single dose oral pharmacokinetic study in rat
Format: in vivo
measurement_conditions: plasma; Rat oral PK @30 mg/kg (Table 3); read-out: t½ (converted)
quantity: half-life (h)
Quick reminder: number only, in h, skip the unit.

Record excerpt, results attached:
INSERT INTO results (compound, quantity, reported_value) VALUES
  ('CC(C)(CC(=O)O[C@H]1CC[C@]2(C)[C@H]3CC[C@@H]4[C@H]5[C@H](C6(C)CC6)CC[C@]5(C(=O)N[C@@H]5C[C@H](C(=O)N6CCCCC6)C5(C)C)CC[C@@]4(C)[C@]3(C)CC[C@H]2C1(C)C)C(=O)O [Example 4]', 'half-life', 4.44),
  ('C=C(C)[C@@H]1CC[C@]2(C(=O)N[C@@H]3C[C@H](c4nnc(C)o4)C3(C)C)CC[C@]3(C)[C@H](CC[C@@H]4[C@@]5(C)CC[C@H](OC(=O)CC(C)(C)C(=O)O)C(C)(C)[C@@H]5CC[C@]43C)[C@@H]12 [Example 11]', 'half-life', 3.66);

Here is another compound to look at.
Entry under review: C=C(C)[C@@H]1CC[C@]2(C(=O)O)CC[C@]3(C)[C@H](CC[C@@H]4[C@@]5(C)CC[C@H](OC(=O)[C@H]6[C@@H](CC(=O)O)C6(C)C)C(C)(C)[C@@H]5CC[C@]43C)[C@@H]12 [Compound 1] . Reported half-life?
1.53

----------
run_description: Single dose oral pharmacokinetic study in mice
Format: in vivo
measurement_conditions: mouse, plasma; Oral PK @ 30 mg/ kg dose in mice (Table 6)
quantity: Tmax (h)
Quick reminder: number only, in h, skip the unit.

INSERT INTO assay_data (compound_smiles, uom, reported_value) VALUES
  ('CCN1CCN(C(=O)[C@]23CC[C@@H](C4(C)CC4)[C@@H]2[C@H]2CC[C@@H]4[C@@]5(C)CC[C@H](OC(=O)CC(C)(C)CC(=O)O)C(C)(C)[C@@H]5CC[C@@]4(C)[C@]2(C)CC3)CC1', 'h', 3.5),
  ('COCCOC1CCN(C(=O)[C@]23CC[C@@H](C4(C)CC4)[C@@H]2[C@H]2CC[C@@H]4[C@@]5(C)CC[C@H](OC(=O)[C@H]6C[C@@H](C(=O)O)C6(C)C)C(C)(C)[C@@H]5CC[C@@]4(C)[C@]2(C)CC3)CC1', 'h', 32),
  ('COCCOCCN1CCN(C(=O)[C@]23CC[C@@H](C4(C)CC4)[C@@H]2[C@H]2CC[C@@H]4[C@@]5(C)CC[C@H](OC(=O)[C@H]6C[C@@H](C(=O)O)C6(C)C)C(C)(C)[C@@H]5CC[C@@]4(C)[C@]2(C)CC3)CC1', 'h', 4),
  ('C=C(C)[C@@H]1CC[C@]2(C(=O)N[C@@H]3C[C@H](c4nnc(C)o4)C3(C)C)CC[C@]3(C)[C@H](CC[C@@H]4[C@@]5(C)CC[C@H](OC(=O)[C@H]6C[C@@H](C(=O)O)C6(C)C)C(C)(C)[C@@H]5CC[C@]43C)[C@@H]12', 'h', 7),
  ('CC1([C@@H]2CC[C@]3(C(=O)N4CCN(CCCN5CCOCC5)CC4)CC[C@]4(C)[C@H](CC[C@@H]5[C@@]6(C)CC[C@H](OC(=O)[C@H]7C[C@@H](C(=O)O)C7(C)C)C(C)(C)[C@@H]6CC[C@]54C)[C@@H]23)CC1', 'h', 6.5);

Entry under review: `COCCOCCN1CCN(C(=O)[C@]23CC[C@@H](C4(C)CC4)[C@@H]2[C@H]2CC[C@@H]4[C@@]5(C)CC[C@H](OC(=O)CC(C)(C)C(=O)O)C(C)(C)[C@@H]5CC[C@@]4(C)[C@]2(C)CC3)CC1` . Reported Tmax?
4

Entry under review: `[2H]C([2H])([2H])C(CC(=O)O[C@H]1CC[C@]2(C)[C@H]3CC[C@@H]4[C@H]5[C@H](C(=C)C)CC[C@]5(C(=O)N[C@@H]5C[C@H](C(=O)N6CCCCC6)C5(C)C)CC[C@@]4(C)[C@]3(C)CC[C@H]2C1(C)C)(C(=O)O)C([2H])([2H])[2H]` . Reported Tmax?
2

----------
Test system: HIV-1 strain 92HT599
run_description: Antiviral activity: p24 estimation in MT2 cells infected with HIV-1 strain 92HT599
Assay type: cell-based
measurement_conditions: Human immunodeficiency virus 1; 100 nM; MT2 cells, HIV-1 92HT599, ~96 hours, p24; read-out: Antiviral activity % inhibition 100 nM
Label rule, in plain words: inhibition at 0.1 µM of 90% and up is yes, under 90% is no.

Illustrative cases are given below, each with its answer.
INSERT INTO measurements (compound_smiles, target_system, label) VALUES
  ('COCCOCCN1CCN(C(=O)[C@]23CC[C@@H](C4(C)CC4)[C@@H]2[C@H]2CC[C@@H]4[C@@]5(C)CC[C@H](OC(=O)CC(C)(C)C(=O)O)C(C)(C)[C@@H]5CC[C@@]4(C)[C@]2(C)CC3)CC1', 'HIV-1 strain 92HT599', 'yes'),
  ('C=C(C)[C@@H]1CC[C@]2(C(=O)N3CCCCC3)CC[C@]3(C)[C@H](CC[C@@H]4[C@@]5(C)CC[C@H](OC(=O)[C@H]6[C@@H](CC(=O)O)C6(C)C)C(C)(C)[C@@H]5CC[C@]43C)[C@@H]12', 'HIV-1 strain 92HT599', 'no'),
  ('CC(C)(CC(=O)O[C@H]1CC[C@]2(C)[C@H]3CC[C@@H]4[C@H]5[C@H](C6(C)CC6)CC[C@]5(C(=O)N5CCN(CCN6CCOCC6)CC5)CC[C@@]4(C)[C@]3(C)CC[C@H]2C1(C)C)C(=O)O', 'HIV-1 strain 92HT599', 'yes'),
  ('COCCOC1CCN(C(=O)[C@]23CC[C@@H](C4(C)CC4)[C@@H]2[C@H]2CC[C@@H]4[C@@]5(C)CC[C@H](OC(=O)CC(C)(C)C(=O)O)C(C)(C)[C@@H]5CC[C@@]4(C)[C@]2(C)CC3)CC1', 'HIV-1 strain 92HT599', 'yes'),
  ('CC(C)(CC(=O)O[C@H]1CC[C@]2(C)[C@H]3CC[C@@H]4[C@H]5[C@H]([C@]6(C)CO6)CC[C@]5(C(=O)N[C@@H]5C[C@H](C(=O)N6CCCCC6)C5(C)C)CC[C@@]4(C)[C@]3(C)CC[C@H]2C1(C)C)C(=O)O', 'HIV-1 strain 92HT599', 'yes');

Given `CC(C)(CC(=O)O[C@H]1CC[C@]2(C)[C@H]3CC[C@@H]4[C@H]5[C@H](C6(C)CC6)CC[C@]5(C(=O)N5CCC(C#N)(c6ccccc6)CC5)CC[C@@]4(C)[C@]3(C)CC[C@H]2C1(C)C)C(=O)O` , state whether its inhibition at 0.1 µM is at least 90%.
no

Given `C=C(C)[C@@H]1CC[C@]2(C(=O)N[C@@H]3C[C@H](c4nnc(C)o4)C3(C)C)CC[C@]3(C)[C@H](CC[C@@H]4[C@@]5(C)CC[C@H](OC(=O)[C@H]6C[C@@H](C(=O)O)C6(C)C)C(C)(C)[C@@H]5CC[C@]43C)[C@@H]12` , state whether its inhibition at 0.1 µM is at least 90%.
yes

Given `CC(C)(CC(=O)O[C@H]1CC[C@]2(C)[C@H]3CC[C@@H]4[C@H]5[C@H]([C@@](C)(O)CO)CC[C@]5(C(=O)N[C@@H]5C[C@H](C(=O)N6CCCCC6)C5(C)C)CC[C@@]4(C)[C@]3(C)CC[C@H]2C1(C)C)C(=O)O` , state whether its inhibition at 0.1 µM is at least 90%.
yes

----------
run_description: Single dose oral pharmacokinetic study in mice
Format: in vivo
measurement_conditions: mouse, plasma; Mice oral PK @30 mg/kg (Table 5); read-out: AUC 0-t
# AUC(0-t) listing for each entry below
Quick reminder: number only, in ng·h/mL, skip the unit.

Record excerpt, results attached:
INSERT INTO assay_data (compound_smiles, uom, reported_value) VALUES
  ('CCN1CCN(C(=O)[C@]23CC[C@@H](C4(C)CC4)[C@@H]2[C@H]2CC[C@@H]4[C@@]5(C)CC[C@H](OC(=O)[C@H]6C[C@@H](C(=O)O)C6(C)C)C(C)(C)[C@@H]5CC[C@@]4(C)[C@]2(C)CC3)CC1', 'ng·h/mL', 456000),
  ('C=C(C)[C@@H]1CC[C@]2(C(=O)N[C@@H]3C[C@H](C(=O)N4CCCCC4)C3(C)C)CC[C@]3(C)[C@H](CC[C@@H]4[C@@]5(C)CC[C@H](OC(=O)[C@H]6[C@@H](CC(=O)O)C6(C)C)C(C)(C)[C@@H]5CC[C@]43C)[C@@H]12', 'ng·h/mL', 36600),
  ('CC(C)(CC(=O)O[C@H]1CC[C@]2(C)[C@H]3CC[C@@H]4[C@H]5[C@H]([C@]6(C)CO6)CC[C@]5(C(=O)N[C@@H]5C[C@H](C(=O)N6CCCCC6)C5(C)C)CC[C@@]4(C)[C@]3(C)CC[C@H]2C1(C)C)C(=O)O', 'ng·h/mL', 15200),
  ('CCN1CCN(C(=O)[C@]23CC[C@@H](C4(C)CC4)[C@@H]2[C@H]2CC[C@@H]4[C@@]5(C)CC[C@H](OC(=O)CC(C)(C)C(=O)O)C(C)(C)[C@@H]5CC[C@@]4(C)[C@]2(C)CC3)CC1', 'ng·h/mL', 201000),
  ('CC(C)(CC(=O)O[C@H]1CC[C@]2(C)[C@H]3CC[C@@H]4[C@H]5[C@H]([C@@](C)(O)CO)CC[C@]5(C(=O)N[C@@H]5C[C@H](C(=O)N6CCCCC6)C5(C)C)CC[C@@]4(C)[C@]3(C)CC[C@H]2C1(C)C)C(=O)O', 'ng·h/mL', 31400);

Here is another molecule to look at.
Entry under review: `Cc1nnc([C@H]2C[C@@H](NC(=O)[C@]34CC[C@@H](C5(C)CC5)[C@@H]3[C@H]3CC[C@@H]5[C@@]6(C)CC[C@H](OC(=O)[C@H]7C[C@@H](C(=O)O)C7(C)C)C(C)(C)[C@@H]6CC[C@@]5(C)[C@]3(C)CC4)C2(C)C)o1` . Reported AUC(0-t)?
88300
